Tested on: FXR:RXRa (NR concentration 270 nM, RXRa partner concentration 90 nM)
Assay method text: PBM binding z-score (relative to random genomic background probes); higher = stronger binding; sequences stand for … in GC…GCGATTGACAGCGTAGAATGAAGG
Collected PBM binding z-score values appear next to each entry.
Reply: number alone, nothing else.

Look over these answered cases.
What value of measured PBM binding z-score is listed for "GCATAGAGGTAATACAAGGTGAAAGTCCGATTGT" ?
1.25

Looking for the measured PBM binding z-score of "CGAACTAGGTCGTTGACAGGACAGTGAATAGTAA" , can you help?
0.598

Record request: PBM binding z-score value, item "TTACCAAGGTGAGCTGAGGCCGTTGATCCAACTC"
0.053

Need PBM binding z-score of "ATCGAGAGGTCGAAGGTGAGTATACCCACCCGAA" , thanks.
3.03

Tell me the measured PBM binding z-score of "AGTCAAAGTTCATCTAGGTAAGGTAAGATATGCT" , please.
6.12

Now take the following sequence into account.
Could you share which PBM binding z-score value was measured for "CCTTACGGGTCACTAACAGGTTATAGCATTTGGA" ?
4.73

###

System: PPARg homodimer (NR concentration 180 nM)
Assay method text: PBM binding z-score (relative to random genomic background probes); higher = stronger binding; sequences stand for … in GC…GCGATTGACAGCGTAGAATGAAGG
Lab note: compare PBM binding z-score against 0.9. Equal or greater, write yes. Smaller, write no.

Observe how each entry below is paired with its result.
Exam item: decide whether the reported PBM binding z-score for "CGAACTAGGTCAAGGACAGAGAATCTCCGCACGC" is at least 0.9.
yes

Is reported PBM binding z-score greater than or equal to 0.9 here: "GCTTGGAGATCAAGGTTAAGAAAGACTAAGCTAA"
no

Is PBM binding z-score at least 0.9? Consider "CGAACGAGGGCATGAGTAGATAGCAAATGCCGAT"
no

Quick check, PBM binding z-score >= 0.9? "CCTACTGGGCGATCAGGTCATTGATATCAACGTT"
no

Please indicate if the recorded PBM binding z-score for "ATACAAAGGTGATCGTGAGGTCGTTGATACTAAC" meets or exceeds 0.9.
yes

Continue with the next sequence.
Does the reported PBM binding z-score for "TGGCCTAGGTCATTCAGGGGCCAGTATAGAAAGC" fall at or above the 0.9 mark?
yes

###

PBM binding z-score values, listed per item
Test system: RARb:RXRa (NR concentration 270 nM, RXRa partner concentration 90 nM)
Assay method text: PBM binding z-score (relative to random genomic background probes); higher = stronger binding; sequences stand for … in GC…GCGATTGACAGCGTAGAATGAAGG
Respond with the number and no other words.

Sample answers from the record:
Fill blank: measured PBM binding z-score of the sequence "CCTTACGGGTCAAGGTTATAGTACGGGTGGTACG" is ____.
4.18

# PBM binding z-score lookup, item "TCTCGGAGGACACGAAAGGTCAGAGTTCGACATC"
4.16

Which PBM binding z-score is listed for "ATCTCTAGGTAACAGTTCAGTGAATCCCGAGGAT" ?
1.01

Continuing:
I would be grateful if you could share the reported PBM binding z-score for "CCTACTGGCCCACGAAAGGTCATTGATTCAGTGA" .
3.94

// provenance: the supplement of paper PMC6555819
